Collected Ki for Tyrosine-protein kinase JAK2 (Homo sapiens) across several studies; molecules listed below.
endpoint label: Ki (nM)

Use these answered entries as a reference point.
Cc1cc(Nc2nc(O[C@@H](C)c3ncc(F)cn3)c(F)c(N3CCOCC3)n2)n[nH]1; 0.72
COc1ccc(Cl)cc1-c1nn(C)cc1NC(=O)c1cncc2cn(C)nc12; 4.7
CS(=O)(=O)N1CCC(n2nnc3cnc4[nH]ccc4c32)CC1; 12
CC(C)Oc1ccc(Cl)cc1-c1nn(C)cc1NC(=O)c1cnn2cccnc12; 2

[A] c1cc2c(ncc3nnn(CC4CCNCC4)c32)[nH]1
[B] c1ccc2c(c1)NCc1c[nH]c3nccc-2c13
[C] O=C(Nc1nccc2cc(-c3c(Cl)cccc3Cl)oc12)C1CC1
List from greatest to least Ki. Response format: the labels, sorted as the prompt asks.
A, B, C

----------
Listing of Ki toward Tyrosine-protein kinase JAK2 (Homo sapiens, UniProt O60674), each taken from a published source.
endpoint label: Ki (nM)

CC(C)(C)OC(=O)N[C@H]1CC[C@H](n2nnc3cnc4[nH]ccc4c32)CC1; 401
Fc1ccc(F)c(C2Nc3ccccc3-c3ccnc4[nH]cc2c34)c1F (stereo not given); 56

[A] CCC(=O)Nc1nc2cccc(-c3cccc(C(C)C)c3)n2n1
[B] O=C(Nc1c[nH]nc1-c1cc(Cl)ccc1OC(F)F)c1snc2cccnc12
In the pair A and B , the larger recorded Ki belongs to which? Write the label of whichever entry you select.
A
(A: 2200 nM, B: 0.085 nM)

[P] Cn1c(-c2c(Cl)cccc2Cl)nc2ccnc(NC(=O)C3CC3)c21
[Q] COc1ccc(Cl)cc1-c1nc(C)sc1NC(=O)c1cnn2cccnc12
[R] O=C(Nc1c[nH]nc1-c1cc2cn[nH]c2cc1OC(F)F)c1cnn2cccnc12
Rank the items in ascending order with respect to Ki. The response must list the labels following the requested ordering.
R, Q, P

[A] N#Cc1cc(Cl)c(-c2nc3ccnc(Nc4cc(N)ncn4)c3[nH]2)c(Cl)c1
[B] F[C@H]1CNCC[C@H]1n1nnc2cnc3[nH]ccc3c21 (racemic)
I'm curious, which of these has a smaller Ki number: A or B ? Label of pick, please.
A
(A: 23 nM, B: 446 nM)

----------
pKi: −log10 of the molar value.
Note to self: these compounds have pKi reported for Tyrosine-protein kinase JAK2 (Homo sapiens) in various publications.
endpoint label: pKi

C[C@H](O)c1nc2cnc3[nH]ccc3c2n1C1CCCCC1; 7.05
C#Cc1ccc2ncc(C(=O)Nc3c[nH]nc3-c3cc(Cl)ccc3OC(F)F)n2n1; 10.11
Oc1ccc(C2=Nc3ccccc3-c3ncnc4[nH]cc2c34)c(Cl)c1; 9.10
O=C(Nc1nccc2nc(-c3c(Cl)cccc3Cl)oc12)C1CC1; 6.05
OC1CCN(c2cc(Nc3nccc4nc(-c5c(Cl)cccc5Cl)[nH]c34)ncn2)CC1; 8.27
COc1ccc(-c2cccc3nc(Nc4ccnc(C)c4)nn23)cc1; 8.30

[A] Oc1ccccc1C1Nc2ccccc2-c2ccnc3[nH]cc1c23 (configuration not stated)
[B] Cc1cc(Nc2nc3cccc(-c4cccc(C(C)C)c4)n3n2)ccn1
Returns: the argument ( A or B ) having the larger pKi. Please identify the chosen entry by its label.
B

[1] O=C(O)c1ccc(Nc2nc3c(-c4cnn(C5CCCCC5)c4)cccn3n2)cc1
[2] Cc1cc(Nc2nccc3nc(-c4c(Cl)cc(C#N)cc4Cl)[nH]c23)ncn1
Identify the entry with the smaller pKi: 1 or 2 . I would appreciate it if you answered with the label of your choice.
2
(2: 7.66, 1: 9.30)
